Kd by entry:
Target: T1, cynomolgus SIRPα extracellular domain + His-tag (XP_015313155) (cynomolgus monkey)
T1 construct: also called CySIRPα XP_015313155; cynoSIRPα
T1 chain: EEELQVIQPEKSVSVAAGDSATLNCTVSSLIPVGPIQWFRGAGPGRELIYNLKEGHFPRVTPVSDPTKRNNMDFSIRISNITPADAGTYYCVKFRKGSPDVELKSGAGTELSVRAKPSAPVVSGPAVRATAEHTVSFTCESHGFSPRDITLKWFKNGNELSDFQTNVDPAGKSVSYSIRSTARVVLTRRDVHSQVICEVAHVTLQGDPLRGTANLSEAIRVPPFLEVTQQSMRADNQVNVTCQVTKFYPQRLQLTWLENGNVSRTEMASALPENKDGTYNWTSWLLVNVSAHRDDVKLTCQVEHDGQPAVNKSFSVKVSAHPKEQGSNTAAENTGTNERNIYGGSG
Test: SPR, Ab captured, ECD-His analyte
The figure you give is taken to be in nM; do not add the unit.

Before answering, review these 4 worked examples.
>>> quantitative_result("Antibody A14 (antibody, human IgG1, kappa, L234A L235A, V domains shown) VH: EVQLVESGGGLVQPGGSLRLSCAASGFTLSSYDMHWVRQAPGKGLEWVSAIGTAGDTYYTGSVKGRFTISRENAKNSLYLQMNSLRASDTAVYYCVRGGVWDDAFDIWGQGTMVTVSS VL: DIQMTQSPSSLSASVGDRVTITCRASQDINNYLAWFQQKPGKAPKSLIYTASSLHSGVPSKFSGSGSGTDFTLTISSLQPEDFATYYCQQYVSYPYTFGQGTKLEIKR")
153
>>> quantitative_result("Antibody A13 (antibody, human IgG1, kappa, L234A L235A, V domains shown) VH: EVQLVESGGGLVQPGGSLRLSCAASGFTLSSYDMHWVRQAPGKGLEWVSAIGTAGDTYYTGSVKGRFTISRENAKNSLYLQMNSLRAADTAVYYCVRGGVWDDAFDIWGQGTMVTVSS VL: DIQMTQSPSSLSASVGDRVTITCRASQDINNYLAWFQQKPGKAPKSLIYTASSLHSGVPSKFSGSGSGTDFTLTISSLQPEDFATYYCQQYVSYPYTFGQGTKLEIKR")
160
>>> quantitative_result("Antibody A5 (antibody, human IgG1, kappa, L234A L235A, V domains shown) VH: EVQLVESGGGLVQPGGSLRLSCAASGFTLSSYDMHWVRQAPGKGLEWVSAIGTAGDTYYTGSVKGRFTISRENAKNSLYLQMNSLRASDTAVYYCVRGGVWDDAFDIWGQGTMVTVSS VL: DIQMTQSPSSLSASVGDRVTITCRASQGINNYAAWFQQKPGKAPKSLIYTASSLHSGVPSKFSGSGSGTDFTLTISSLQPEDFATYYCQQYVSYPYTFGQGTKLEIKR")
347
>>> quantitative_result("Antibody A12 (antibody, human IgG1, kappa, L234A L235A, V domains shown) VH: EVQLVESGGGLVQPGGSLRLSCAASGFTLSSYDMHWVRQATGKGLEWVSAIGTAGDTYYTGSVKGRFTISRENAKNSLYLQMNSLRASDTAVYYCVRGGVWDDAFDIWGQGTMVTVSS VL: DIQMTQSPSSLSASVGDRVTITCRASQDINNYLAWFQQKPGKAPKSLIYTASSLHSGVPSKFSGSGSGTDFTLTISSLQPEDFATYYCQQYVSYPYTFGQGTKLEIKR")
182

Let's switch to this binder now.
# input // Kd lookup, key: Antibody A1 (antibody, human IgG1, kappa, L234A L235A, V domains shown, also called Antibody Al) VH: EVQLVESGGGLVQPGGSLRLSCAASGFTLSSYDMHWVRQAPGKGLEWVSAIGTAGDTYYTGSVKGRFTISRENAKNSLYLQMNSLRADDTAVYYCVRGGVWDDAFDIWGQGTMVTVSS VL: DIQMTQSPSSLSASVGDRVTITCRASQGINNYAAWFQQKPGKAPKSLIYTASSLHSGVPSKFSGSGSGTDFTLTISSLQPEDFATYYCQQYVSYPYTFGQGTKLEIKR
# output 369
